# assay system: human GLP-1 receptor (human, UniProt P43220 24-463)
# method summary: cell-based or functional assay
Numbered stars: 1 amine (or outer) side, 2 acyl side, 3 side chain; on linkers, the order of the positions; unused ones are H or OH. Square brackets hold non-standard residues; d marks the D form. Side chains are listed from the residue outwards. Ends that are not written are not given here. γGlu = O=C(O)[C@H](CCC(=O)[*:2])N[*:1]; X70 = not defined here; Aib = CC(C)(N)C(=O)O
Sorting guide: entries reporting EC50 hGLP-1R (cAMP) beneath 6 pM go in the met pile, the rest go in the not met pile.

INPUT: I'd appreciate it if you could check whether HXQGTFTSDLSKQMESKAAQDFIEWLKAGGPSSGAPPPS (dSer at 2; C-terminal NH2) [SEQ ID NO: 189] has EC50 hGLP-1R (cAMP) smaller than 6 pM.
OUTPUT: met

INPUT: API: query returns whether the binder falls strictly under 6 pM in EC50 hGLP-1R (cAMP). Query: HXQGTFTSDLSKQKESKAAQDFIEWLKAGGPSSGAPPPS (dSer at 2; K(γE-x53) at 14; C-terminal NH2) [SEQ ID NO: 24]
OUTPUT: met

INPUT: Check if EC50 hGLP-1R (cAMP) falls below 6 pM for H[Aib]QGTFTSDLSKQK([γGlu-X70])EEEAARLFIEWLKAGGPSSGAPPPS-NH2 (reading uncertain) [SEQ ID NO: 215] .
OUTPUT: met

INPUT: Confirm or reject: EC50 hGLP-1R (cAMP) of HXQGTFTSDLSKQKDSRRAQDFIEWLKAGGPSSGAPPPS (dSer at 2; K(γE-x53) at 14; C-terminal NH2) [SEQ ID NO: 74] lies strictly below 6 pM
OUTPUT: met

INPUT: Quick check: does HXQGTFTSDLSKQKDSRRAQDFIEWLKKGGPSSGAPPPS (dSer at 2; K(γE-x53) at 14; C-terminal NH2) [SEQ ID NO: 84] have EC50 hGLP-1R (cAMP) under 6 pM?
OUTPUT: not met
